test system: P12-Ichikawa; test: cell viability relative to DMSO control; higher = less cytotoxic; conditions: RPMI 5 mM glucose + 10% dialyzed FBS; 48 h; 0.000781 µM
# reported cell viability; entries follow
Numeric answer only, unit % assumed.

| Compound | Parameter | Value unit | Observed |
| --- | --- | --- | --- |
| Oc1c(Cl)cc(Cl)c2cccnc12 | cell viability | % | 99.1 |
| Clc1ccccc1C(c1ccccc1)(c1ccccc1)n1ccnc1 | cell viability | % | 103 |
| NC(CO)C(=O)NNCc1ccc(O)c(O)c1O (stereo not drawn) | cell viability | % | 99.9 |
| CC(C)(O)C(=O)Nc1ccc([N+](=O)[O-])c(C(F)(F)F)c1 | cell viability | % | 94.1 |
| O=C(NCC1CCOCC1)c1cnc(Nc2ccc(Cl)cc2Cl)nc1C(F)(F)F | cell viability | % | 98 |

# get_value(readout='cell viability', item= CN(C(Cc1ccc(O[S+](=O)([O-])c2cccc3cnccc23)cc1)C(=O)N1CCN(c2ccccc2)CC1)[S+](=O)([O-])c1cccc2cnccc12 (stereo not drawn) )
104

Next up: `CCCCCN(CCC12CC3CC(CC(C3)C1)C2)C(=O)NCCCc1ccncc1`
115

Further, for `CS[C@H]1SC[C@@H]2C(=O)N(C)[C@H](C(C)C)C(=O)OC[C@H](NC(=O)c3cnc4ccccc4n3)C(=O)N[C@H](C)C(=O)N(C)[C@H]1C(=O)N(C)[C@H](C(C)C)C(=O)OC[C@H](NC(=O)c1cnc3ccccc3n1)C(=O)N[C@H](C)C(=O)N2C` ?
88.5
